// pIC50 collected for UniProt P50750
Sequence (P50750 whole entry): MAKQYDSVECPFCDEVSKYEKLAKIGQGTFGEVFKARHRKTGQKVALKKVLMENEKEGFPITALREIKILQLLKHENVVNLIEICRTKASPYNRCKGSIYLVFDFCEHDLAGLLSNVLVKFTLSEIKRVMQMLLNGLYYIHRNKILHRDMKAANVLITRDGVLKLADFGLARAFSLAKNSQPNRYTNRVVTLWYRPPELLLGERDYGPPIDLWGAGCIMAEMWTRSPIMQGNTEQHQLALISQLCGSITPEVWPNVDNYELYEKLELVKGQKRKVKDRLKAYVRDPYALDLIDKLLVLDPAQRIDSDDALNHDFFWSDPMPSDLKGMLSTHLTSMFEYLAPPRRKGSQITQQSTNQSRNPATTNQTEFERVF
Sequence (O60563 whole entry partner): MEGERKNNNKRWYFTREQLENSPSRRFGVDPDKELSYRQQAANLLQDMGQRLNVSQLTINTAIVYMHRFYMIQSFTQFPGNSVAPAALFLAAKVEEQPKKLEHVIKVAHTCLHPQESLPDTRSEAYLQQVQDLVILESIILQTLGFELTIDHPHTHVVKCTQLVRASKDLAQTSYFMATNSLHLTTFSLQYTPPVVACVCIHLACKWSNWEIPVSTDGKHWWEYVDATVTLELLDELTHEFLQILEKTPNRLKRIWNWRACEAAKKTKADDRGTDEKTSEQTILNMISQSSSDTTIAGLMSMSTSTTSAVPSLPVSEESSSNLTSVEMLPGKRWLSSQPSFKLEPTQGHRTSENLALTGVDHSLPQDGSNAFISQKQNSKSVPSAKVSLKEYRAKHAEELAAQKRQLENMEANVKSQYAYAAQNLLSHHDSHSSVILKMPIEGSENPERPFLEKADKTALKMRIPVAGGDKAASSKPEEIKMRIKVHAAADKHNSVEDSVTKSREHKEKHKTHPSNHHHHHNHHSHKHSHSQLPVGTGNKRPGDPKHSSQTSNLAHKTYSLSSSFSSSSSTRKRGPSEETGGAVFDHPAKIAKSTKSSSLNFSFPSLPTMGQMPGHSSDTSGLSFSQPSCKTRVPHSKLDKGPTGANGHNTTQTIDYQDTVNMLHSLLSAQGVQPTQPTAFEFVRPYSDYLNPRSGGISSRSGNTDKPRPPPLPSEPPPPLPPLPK
The meaning of pIC50 here: minus log10 of the concentration in molar units.

A selection of reference data follows.
Field pIC50 (entry CC1(C)Cc2c(-c3cc(NC(=O)[C@H]4C[C@H]5C[C@@H](C(N)=O)C[C@H]5C4)ncc3Cl)cc(C(N)=O)n2C1 [Compound 15-2] ) reads 8.43

Field pIC50 (entry CC(=O)N1C[C@H]2CC(C(=O)Nc3cc(-c4cc(C(N)=O)n5c4CC(C)(C)C5)c(Cl)cn3)C[C@H]2C1 (single isomer, unassigned) [Compound 8-2] ) reads 8.51

Field pIC50 (entry CC(=O)N[C@@H]1CCC[C@H](C(=O)Nc2cc(-c3cc(C#N)n4c3CC(C)(C)C4)c(Cl)cn2)C1 [Compound 1] ) reads 8.68

Further cases:
Field pIC50 (entry CC(=O)N1C[C@H]2CC(C(=O)Nc3cc(-c4cc(C(N)=O)n5c4CC(C)(C)C5)c(Cl)cn3)C[C@H]2C1 (single isomer, unassigned) [Compound 8-1] ) reads 8.46

Field pIC50 (entry CC(=O)N[C@@H]1CCC[C@H](C(=O)Nc2cc(-c3cnn4c3CC(C)(C)C4)c(C(F)(F)F)cn2)C1 [Compound 30] ) reads 8.20

From: patent US20230192703A1
